- Tested on: SW-620
- Assay Summary: Tested for cytotoxicity against human colon cancer SW620 cell line
- Format: functional
So I've got a bunch of molecules here, and I need their TCS50 values.
API: value field is a number in µM; no unit string.

Lookup: Quick one: TCS50 for C=C(C=O)[C@@H]1CC[C@]2(C(=O)O)CC[C@]3(C)[C@H](CC[C@@H]4[C@@]5(C)CC[C@H](OC(C)=O)C(C)(C)[C@@H]5CC[C@]43C)C12 (some centres undefined) ?
Found: 5.86

Lookup: Cool, now `CC(=O)OC[C@@]1(C(=O)O)CC[C@]2(C)[C@H](CC[C@@H]3[C@@]4(C)CC[C@H](OC(C)=O)C(C)(C)[C@@H]4CC[C@]32C)C1=O`
Found: 1.22

Lookup: Same read-out for `COC(=O)[C@@]12CC[C@]3(C)[C@H](CC[C@@H]4[C@@]5(C)CC[C@H](OC(C)=O)C(C)(C)[C@@H]5CC[C@]43C)C1=C(C(C)C)C(=O)C2=O` ?
Found: 5.89

* * *

- Test system: K562
- Assay Summary: Tested for cytotoxicity against human […] leukemia K562-GEM cell line
- Type: functional
Assay Endpoint: TCS50
Please don't drop the unit; write it after the number.

Lookup: Look up TCS50 for this compound: `CC(=O)OC[C@@]1(C(=O)O)CC[C@]2(C)[C@H](CC[C@@H]3[C@@]4(C)CC[C@H](OC(C)=O)C(C)(C)[C@@H]4CC[C@]32C)C1=O`
Found: 0.94 µM

Lookup: Also C=C(C=O)[C@@H]1CC[C@]2(C(=O)O)CC[C@]3(C)[C@H](CC[C@@H]4[C@@]5(C)CC[C@H](OC(C)=O)C(C)(C)[C@@H]5CC[C@]43C)C12 (some centres undefined) , if possible.
Found: 2.36 µM

Lookup: Next compound: `COC(=O)[C@@]12CC[C@]3(C)[C@H](CC[C@@H]4[C@@]5(C)CC[C@H](OC(C)=O)C(C)(C)[C@@H]5CC[C@]43C)C1=C(C(C)C)C(=O)C2=O`
Found: 5.04 µM

Lookup: Same again, this time with `C=C(C)[C@@H]1CC[C@]2(C(=O)O)CC[C@]3(C)[C@H](CC[C@@H]4[C@@]5(C)CC[C@H](O)C(C)(C)[C@@H]5CC[C@]43C)[C@@H]12`
Found: 101 µM

* * *

- Tested on: CEM-DNR
- Assay Summary: Tested for cytotoxicity against human T-lymphoblastic leukemia CEM-DNR 1/C2 cell line
- Assay type: functional
Assignment: determine reported TCS50 for the given compounds.
Answer format: numeric, µM implied, no suffix.

Lookup: Find the measured TCS50: item `COC(=O)[C@@]12CC[C@]3(C)[C@H](CC[C@@H]4[C@@]5(C)CC[C@H](OC(C)=O)C(C)(C)[C@@H]5CC[C@]43C)C1=C(C(C)C)C(=O)C2=O` , target or system CEM-DNR.
Found: 10.3

Lookup: Also `CC(=O)OC[C@@]1(C(=O)O)CC[C@]2(C)[C@H](CC[C@@H]3[C@@]4(C)CC[C@H](OC(C)=O)C(C)(C)[C@@H]4CC[C@]32C)C1=O` ?
Found: 0.61

Lookup: Now consider C=C(C=O)[C@@H]1CC[C@]2(C(=O)O)CC[C@]3(C)[C@H](CC[C@@H]4[C@@]5(C)CC[C@H](OC(C)=O)C(C)(C)[C@@H]5CC[C@]43C)C12 (some centres undefined) and answer again.
Found: 1.58

* * *

- System: K562
- Assay Summary: Tested for cytotoxicity against human […] leukemia K562-ARA-C cell line
- Format: functional
For each of the compounds below, state its TCS50.
State the answer as a number, implicitly in µM.

Lookup: Return reported TCS50; argument: `CC(=O)OC[C@@]1(C(=O)O)CC[C@]2(C)[C@H](CC[C@@H]3[C@@]4(C)CC[C@H](OC(C)=O)C(C)(C)[C@@H]4CC[C@]32C)C1=O`
Found: 0.63

Lookup: Record: `COC(=O)[C@@]12CC[C@]3(C)[C@H](CC[C@@H]4[C@@]5(C)CC[C@H](OC(C)=O)C(C)(C)[C@@H]5CC[C@]43C)C1=C(C(C)C)C(=O)C2=O`
Found: 6.42

Lookup: Same thing, different compound: C=C(C=O)[C@@H]1CC[C@]2(C(=O)O)CC[C@]3(C)[C@H](CC[C@@H]4[C@@]5(C)CC[C@H](OC(C)=O)C(C)(C)[C@@H]5CC[C@]43C)C12 (some centres undefined)
Found: 1.59

* * *

- System: SK-MEL3
- Assay Summary: Tested for cytotoxicity against human melanoma MEL-3 cell line
- Assay type: functional
Assay Endpoint: TCS50 (µM)
Answer in µM, number only, no unit symbol.

Lookup: What TCS50 appears in the records for this compound with SK-MEL3? C=C(C=O)[C@@H]1CC[C@]2(C(=O)O)CC[C@]3(C)[C@H](CC[C@@H]4[C@@]5(C)CC[C@H](OC(C)=O)C(C)(C)[C@@H]5CC[C@]43C)C12 (some centres undefined)
Found: 3.68

Lookup: Would you mind doing `CC(=O)OC[C@@]1(C(=O)O)CC[C@]2(C)[C@H](CC[C@@H]3[C@@]4(C)CC[C@H](OC(C)=O)C(C)(C)[C@@H]4CC[C@]32C)C1=O` as well?
Found: 1.28

Lookup: Next record, please: `C=C(C)[C@@H]1CC[C@]2(C(=O)O)CC[C@]3(C)[C@H](CC[C@@H]4[C@@]5(C)CC[C@H](O)C(C)(C)[C@@H]5CC[C@]43C)[C@@H]12`
Found: 2.65

Lookup: Please do the same for `COC(=O)[C@@]12CC[C@]3(C)[C@H](CC[C@@H]4[C@@]5(C)CC[C@H](OC(C)=O)C(C)(C)[C@@H]5CC[C@]43C)C1=C(C(C)C)C(=O)C2=O` as well.
Found: 5.86

* * *

Provide the recorded TCS50 for the entries that follow.
- Tested on: MDA-MB-238
- Assay Summary: Tested for cytotoxicity against human breast cancer MDA-MB-238 cell line
- Type: functional
Respond numerically; units are µM and should not be typed.

Lookup: Return reported TCS50; argument: `C=C(C)[C@@H]1CC[C@]2(C(=O)O)CC[C@]3(C)[C@H](CC[C@@H]4[C@@]5(C)CC[C@H](O)C(C)(C)[C@@H]5CC[C@]43C)[C@@H]12`
Found: 195

Lookup: # iterate: C=C(C=O)[C@@H]1CC[C@]2(C(=O)O)CC[C@]3(C)[C@H](CC[C@@H]4[C@@]5(C)CC[C@H](OC(C)=O)C(C)(C)[C@@H]5CC[C@]43C)C12 (some centres undefined)
Found: 2.37

Lookup: Lookup `COC(=O)[C@@]12CC[C@]3(C)[C@H](CC[C@@H]4[C@@]5(C)CC[C@H](OC(C)=O)C(C)(C)[C@@H]5CC[C@]43C)C1=C(C(C)C)C(=O)C2=O`
Found: 3.28

Lookup: Entry `CC(=O)OC[C@@]1(C(=O)O)CC[C@]2(C)[C@H](CC[C@@H]3[C@@]4(C)CC[C@H](OC(C)=O)C(C)(C)[C@@H]4CC[C@]32C)C1=O` please
Found: 1.35

* * *

- Test system: BT-549
- Assay Summary: Tested for cytotoxicity against human breast cancer BT549 cell line
- Format: functional
Assay Endpoint: TCS50 (µM)
Express the result in µM but write the number alone.

Lookup: // query TCS50 value for entry `CC(=O)OC[C@@]1(C(=O)O)CC[C@]2(C)[C@H](CC[C@@H]3[C@@]4(C)CC[C@H](OC(C)=O)C(C)(C)[C@@H]4CC[C@]32C)C1=O`
Found: 2.03

Lookup: What do you have for C=C(C=O)[C@@H]1CC[C@]2(C(=O)O)CC[C@]3(C)[C@H](CC[C@@H]4[C@@]5(C)CC[C@H](OC(C)=O)C(C)(C)[C@@H]5CC[C@]43C)C12 (some centres undefined) ?
Found: 6.28

Lookup: Now the molecule `COC(=O)[C@@]12CC[C@]3(C)[C@H](CC[C@@H]4[C@@]5(C)CC[C@H](OC(C)=O)C(C)(C)[C@@H]5CC[C@]43C)C1=C(C(C)C)C(=O)C2=O`
Found: 15.3

The values you see were collected from ChEMBL document CHEMBL1146596.
